target: T1, monomeric human PRLR (hPRLR.mmh; SEQ ID NO:401) (Homo sapiens, UniProt P16471); assay: Surface plasmon resonance (Biacore T200), antibody-capture format; assay type: binding; settings: 25° C., analyte hPRLR.mmh
T1 construct: soluble monomeric (hPRLR.mmh); mmh (myc-myc-hexahistidine) (C)
T1 sequence (P16471 with tags, fused parts or gaps): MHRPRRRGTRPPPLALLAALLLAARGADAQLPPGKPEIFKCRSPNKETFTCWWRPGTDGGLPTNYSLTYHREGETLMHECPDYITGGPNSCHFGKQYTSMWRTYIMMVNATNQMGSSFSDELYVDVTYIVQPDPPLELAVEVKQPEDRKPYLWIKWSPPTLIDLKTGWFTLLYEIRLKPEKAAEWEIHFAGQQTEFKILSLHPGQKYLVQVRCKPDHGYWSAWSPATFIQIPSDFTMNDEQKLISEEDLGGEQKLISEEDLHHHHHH
MEASURED_ATTRIBUTE: kd

MOLECULE	MEASURED_ATTRIBUTE	READOUT_VALUE
H1H6795P: fully human anti-PRLR antibody, human IgG1 Fc; HCVR/LCVR SEQ ID NOs 162/170 (antibody, V domains shown) VH: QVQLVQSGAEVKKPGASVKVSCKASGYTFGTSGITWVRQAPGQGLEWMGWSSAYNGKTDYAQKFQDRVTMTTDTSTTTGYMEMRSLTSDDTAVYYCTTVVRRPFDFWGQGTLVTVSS VL: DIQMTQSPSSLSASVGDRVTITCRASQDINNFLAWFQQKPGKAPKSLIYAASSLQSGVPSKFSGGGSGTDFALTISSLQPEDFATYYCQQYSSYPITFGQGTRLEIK	kd	0.00177 s⁻¹
H1H6966N: anti-PRLR antibody, human IgG1 Fc form of H2M6966N of Table 1; HCVR/LCVR SEQ ID NOs 338/346 (antibody, V domains shown, human IgG1 Fc) VH: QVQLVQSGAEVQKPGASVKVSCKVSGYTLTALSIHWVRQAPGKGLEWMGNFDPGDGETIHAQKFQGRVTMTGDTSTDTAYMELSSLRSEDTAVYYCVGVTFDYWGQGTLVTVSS VL: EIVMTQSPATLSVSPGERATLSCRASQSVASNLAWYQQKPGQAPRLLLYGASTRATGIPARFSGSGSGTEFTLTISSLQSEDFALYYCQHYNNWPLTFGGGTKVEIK	kd	0.000257 s⁻¹
H1H6790P: fully human anti-PRLR antibody, human IgG1 Fc; HCVR/LCVR SEQ ID NOs 114/122 (antibody, V domains shown) VH: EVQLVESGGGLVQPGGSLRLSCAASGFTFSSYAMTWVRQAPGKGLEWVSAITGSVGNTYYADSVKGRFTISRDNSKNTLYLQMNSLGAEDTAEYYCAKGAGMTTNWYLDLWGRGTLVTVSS VL: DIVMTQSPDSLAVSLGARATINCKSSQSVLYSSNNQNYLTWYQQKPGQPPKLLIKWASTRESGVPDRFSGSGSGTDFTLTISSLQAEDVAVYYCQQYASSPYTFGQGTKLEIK	kd	0.000799 s⁻¹
H1H6967N: anti-PRLR antibody, human IgG1 Fc form of H2M6967N of Table 1; HCVR/LCVR SEQ ID NOs 354/362 (antibody, V domains shown, human IgG1 Fc) VH: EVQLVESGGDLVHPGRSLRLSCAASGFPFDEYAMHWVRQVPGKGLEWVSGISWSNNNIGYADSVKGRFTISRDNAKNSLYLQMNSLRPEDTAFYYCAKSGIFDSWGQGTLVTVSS VL: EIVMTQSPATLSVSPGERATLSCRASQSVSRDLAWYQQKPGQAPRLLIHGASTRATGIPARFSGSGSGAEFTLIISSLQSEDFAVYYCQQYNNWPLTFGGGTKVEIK	kd	0.000332 s⁻¹
H1H6800P: fully human anti-PRLR antibody, human IgG1 Fc; HCVR/LCVR SEQ ID NOs 194/202 (antibody, V domains shown) VH: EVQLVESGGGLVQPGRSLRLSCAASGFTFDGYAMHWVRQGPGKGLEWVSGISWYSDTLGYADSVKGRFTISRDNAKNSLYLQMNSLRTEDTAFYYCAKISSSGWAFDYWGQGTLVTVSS VL: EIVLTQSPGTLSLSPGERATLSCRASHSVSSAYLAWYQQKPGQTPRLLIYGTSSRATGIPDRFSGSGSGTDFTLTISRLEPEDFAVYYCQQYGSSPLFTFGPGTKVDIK	kd	0.000409 s⁻¹
